test system: surinam grass; test: Test B pre/postemergence surinam grass; assay type: in vivo, Brachiaria decumbens; settings: Preemergence, Rate 500 g/ha; scale of 0 to 10 where 0 is no effect and 10 is complete control
Is B. signalgrass plant response rating at least 7? Then Satisfied. If not, Not satisfied.

molecule="C=CC[Si](C)(C)Cn1c(=O)on(C(=O)N(c2ccc(Cl)cc2)C(C)C)c1=O [Compound 414]" class="Not satisfied"

Exam item: Please check the record Cc1noc(C)c1Cn1c(=O)on(C(=O)N(c2ccc(Cl)cc2)C(C)C)c1=O [Compound 540] and state if its B. signalgrass plant response rating is at or above 7.
Marked response: Satisfied
